Target: T1, L1-CAM-Fc (UniProt P32004 20-1120, limits assumed)
T1 construct: also called antigen L1-CAM-Fc; not shown: Fc part
T1 sequence (P32004 20-1120 limits assumed): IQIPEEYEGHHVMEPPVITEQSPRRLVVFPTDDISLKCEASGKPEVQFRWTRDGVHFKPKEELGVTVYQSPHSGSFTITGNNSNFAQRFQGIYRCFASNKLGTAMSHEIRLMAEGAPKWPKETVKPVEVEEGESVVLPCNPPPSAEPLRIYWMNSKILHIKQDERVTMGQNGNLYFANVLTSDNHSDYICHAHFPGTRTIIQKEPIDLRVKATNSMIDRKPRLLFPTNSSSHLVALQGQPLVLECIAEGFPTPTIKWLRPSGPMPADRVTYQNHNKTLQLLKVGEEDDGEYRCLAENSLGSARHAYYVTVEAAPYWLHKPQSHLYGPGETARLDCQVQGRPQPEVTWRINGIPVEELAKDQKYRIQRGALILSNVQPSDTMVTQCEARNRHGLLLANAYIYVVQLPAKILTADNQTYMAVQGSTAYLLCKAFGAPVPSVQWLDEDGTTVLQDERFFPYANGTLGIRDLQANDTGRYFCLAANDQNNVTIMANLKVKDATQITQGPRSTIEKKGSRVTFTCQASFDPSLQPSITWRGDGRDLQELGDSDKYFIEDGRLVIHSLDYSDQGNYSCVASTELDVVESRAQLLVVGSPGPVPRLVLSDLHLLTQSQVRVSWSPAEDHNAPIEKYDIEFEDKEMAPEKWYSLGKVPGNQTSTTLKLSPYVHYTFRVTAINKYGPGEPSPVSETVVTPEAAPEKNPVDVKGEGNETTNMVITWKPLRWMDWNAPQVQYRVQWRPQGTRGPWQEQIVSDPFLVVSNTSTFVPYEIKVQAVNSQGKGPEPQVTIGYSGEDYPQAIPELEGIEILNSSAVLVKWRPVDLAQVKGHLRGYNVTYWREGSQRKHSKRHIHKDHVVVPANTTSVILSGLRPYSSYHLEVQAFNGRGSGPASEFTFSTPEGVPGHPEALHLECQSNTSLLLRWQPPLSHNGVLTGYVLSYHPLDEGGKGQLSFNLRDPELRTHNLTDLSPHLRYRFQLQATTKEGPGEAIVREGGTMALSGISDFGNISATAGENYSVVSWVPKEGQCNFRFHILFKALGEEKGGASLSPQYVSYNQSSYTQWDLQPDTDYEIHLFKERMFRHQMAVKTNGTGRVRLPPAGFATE
Test: SPR (Biacore T100), L1-CAM-Fc immobilised on CM5 chip
RECORDED ENDPOINT: Kd (nM)
Number only, in nM; omit the unit.

| BINDER | Kd [nM] |
| --- | --- |
| E72-H2L2 (antibody, human IgG1, kappa, V domains shown, also called huE72 H2/L2) VH: QVQLVQPGAEVKKPGASVKLSCKASGYTFTGYWMHWVRQAPGQGLEWIGEINPSNGRTNYNERFKSRATLTVDKSISTAYMELSRLRSDDTAVYFCARDYYGTSYNFDYWGQGTLLTVSS VL: DIQMTQSPSSLSVSVGDRVTITCKANEDINNRLAWYQQKPGKAPKLLISGATNLVTGVPSRFSGSGSGTDYTLTISSLQPEDFATYYCQQYWSTPFTFGQGTELEIKR | 0.536 |

Here's the next entry for you.
*Q* Give the measured Kd of huE71-H2L2 (antibody, human IgG1, kappa, V domains shown) VH: QVQLVQSGSELKKPGASVKLSCKASGYTFTSYWMQWVRQAPGQGLEWIGEINPSNGRTNYNEMFKSRAVLSVDTSVSTAYMQLCSLKAEDTAVYYCALYDGYYAMDYWGQGTLVTVSS VL: DIVMTQSPDSLAVSLGERVTMNCKSSQSLLYSSNQKNYLAWYQQKPGQPPKLLIYWASTRESGVPDRFSGSGSGTDFTLTISSLQAEDVALYYCQQYHSYPFTFGQGTKLEIKR .
*A* 2.72
